- Tested on: hEPO mRNA
- assay.details: hEPO expression after intravenous administration to rats
- Assay type: in vivo, rat
- protocol.conditions: Table 19B; species, dose and time not given

>  <molecule>
CCCCCCCCC(CCCCCCCC)OC(=O)CCCCCCCN(CCO)CCCCCC(=O)OC(C)CCCCCCCCOC(C)=O (stereo not drawn)

>  <tested.on>
hEPO mRNA

>  <[hEPO]>
1.27e+06 pg/mL

$$$$
>  <molecule>
CCCCCCCCCOC(=O)CCCCCCCN(CCCCCCCC(=O)OC(CCCCCCCC)CCCCCCCC)CCCN/C(=N/S(C)(=O)=O)N(C)C

>  <tested.on>
hEPO mRNA

>  <[hEPO]>
9800 pg/mL

$$$$
>  <molecule>
CCCCCCCCCOC(=O)CCCCCCCN(CCO)CCCCCC(=O)OC1CCC(CCCCC)CC1 (stereo not drawn)

>  <tested.on>
hEPO mRNA

>  <[hEPO]>
7024.114 pg/mL

$$$$
